Below, each entry is listed with its recorded RP-LC retention time.
test: gradient 5% acetonitrile 3 min, to 50% in 2 min, to 85% in 15 min, held 3 min, 100 µL/min; conditions: column: Zorbax Extend-C18 2.1 x 50 mm; eluents: water / acetonitrile, 0.1% formic acid
reported_property: RP-LC retention time (s)

- COc1ccc(-c2cc(N3CCN(C(=O)c4ccc(Br)o4)CC3)ncn2)cc1: 591
- O=C(Cc1ccsc1)Nc1cccn2ncnc12: 699
- O=C(CN(c1ccc(F)cc1)S(=O)(=O)c1cccnc1)NCCc1ccccc1: 789
- O=C(Nc1ccc2c(c1)N(C(=O)c1ccco1)CC2)c1ccc2c(c1)OCO2: 770
- CC1Oc2ccccc2OC1C(=O)NCCn1nc(-c2ccco2)ccc1=O (stereo not given): 722
- CC1CCC(NC(=O)C2CCCN2S(=O)(=O)c2cc3c(cc2Cl)NC(=O)CO3)CC1 (stereo not given): 840
- CCN(Cc1ccccc1)C(=O)Cn1cccc1-c1nnc(-c2ccccc2)o1: 1050
- COc1ccc(C2(c3nc(-c4cccc(-c5ccnn5C)c4)no3)CC2)cc1: 1150
- Cc1ccc(-c2cc3n(n2)CCCN(C(=O)c2cnccn2)C3)cc1: 766
- O=C(c1cncc(Br)c1)N1CCN(c2ccc(-c3ccco3)nn2)CC1: 603
- COCCc1noc(C2Cc3ccccc3N2C(=O)Nc2ccc(OC)c(OC)c2)n1 (stereo not given): 851
- CC(C)Sc1ccc(CC(=O)NCC2CCN(C(=O)Nc3ccc(F)cc3)CC2)cc1: 860
- Clc1ccc2nc(-c3ccc(N4CCOCC4)cc3)c(Nc3ccc4c(c3)OCO4)n2c1: 715
- COc1ccc(-c2nc3cc(C)ccn3c2Nc2ccc(C)cc2)cc1: 761
- Cc1ccc(C(=O)NCCn2c(C)cnc2C)s1: 589
- Cc1cc(OCC(=O)Nc2nc(-c3ccccc3)cs2)ccc1Cl: 1180
- O=C(Cc1ccc(Br)cc1)NC1CCN(c2cc(-c3ccc(F)cc3)[nH]n2)C1 (stereo not given): 780
- COC(=O)c1cccc(C(=O)N2CCN(c3cc(Cl)ccc3C)CC2)n1: 946
- CCCN1C(=O)NC(=O)C2NCNC21 (stereo not given): 604
- Cn1nc(C(=O)N2CCCC2)c2c1CCN(C(=O)CCC(=O)NCCN1CCCCCC1)C2: 586
